The measurements presented in this section are drawn from ChEMBL document CHEMBL5620364.

system: Sigma non-opioid intracellular receptor 1 (Homo sapiens, UniProt Q99720)
Sequence (Q99720 whole entry): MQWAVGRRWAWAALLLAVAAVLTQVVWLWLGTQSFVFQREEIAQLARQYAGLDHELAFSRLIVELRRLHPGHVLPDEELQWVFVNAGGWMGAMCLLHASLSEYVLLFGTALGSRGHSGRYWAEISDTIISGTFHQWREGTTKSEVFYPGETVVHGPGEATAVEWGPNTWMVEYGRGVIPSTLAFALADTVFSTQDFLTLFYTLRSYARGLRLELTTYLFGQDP
procedure-summary: Binding affinity to sigma 1 receptor (unknown origin) assessed as inhibition constant
pKi: −log10 of the molar value.
value-kind: pKi

Please review the following examples before continuing.
mol: CN1CC(C(=O)N2CCN(c3ccc4c(c3)[C@@H]3C[C@H]4CCN3C(=O)OCc3ccccc3)CC2)C1
pKi: 7.27

mol: CN(C)CCN1CCN(c2ccc3c(c2)[C@@H]2C[C@H]3CCN2C(=O)OCc2ccccc2)CC1
pKi: 7.08

mol: CNCCN1CCN(c2ccc3c(c2)[C@@H]2C[C@H]3CCN2C(=O)OCc2ccccc2)CC1
pKi: 6.76

mol: CNCCC(=O)N1CCN(c2ccc3c(c2)[C@@H]2C[C@H]3CCN2C(=O)OCc2ccccc2)CC1
pKi: 6.72

(A) CCN(CC)C(=O)CCN1CCN(c2ccc3c(c2)[C@@H]2C[C@H]3CCN2C(=O)OCc2ccccc2)CC1
(B) COCCCN1CCN(c2ccc3c(c2)[C@@H]2C[C@H]3CCN2C(=O)OCc2ccccc2)CC1
Problem: Param pair: A , B . Output: the one whose pKi is numerically greater. Select an item and report its label.
Result: B

----------
system: Sigma intracellular receptor 2 (Homo sapiens)
procedure-summary: Displacement of [3H](+)-ditolylguanidine from human sigma 2 receptor transfected in human HEK293T cells assessed as inhibition constant in presence of (+)-pentazocine by radioligand competition binding assay
Format: cell-based, HEK293
value-kind: Ki (nM)

mol: O=C(OCc1ccccc1)N1CC[C@H]2C[C@@H]1c1cc(N3CCN(C4CCC4)CC3)ccc12
measure-unit: nM
Ki: 34.3

mol: O=C(OCc1ccccc1)N1CC[C@@H]2C[C@H]1c1cc(N3CCN(C4CCC4)CC3)ccc12
measure-unit: nM
Ki: 12.4

mol: O=C(OCc1cccc(F)c1)N1CC[C@@H]2C[C@H]1c1cc(N3CCN(CCCF)CC3)ccc12
measure-unit: nM
Ki: 21.2

mol: O=C(OCc1ccccc1)N1CC[C@@H]2C[C@H]1c1cc(N3CC4CCC(C3)N4CCCF)ccc12
measure-unit: nM
Ki: 17.7

(a) O=C(OCc1ccccc1)N1CC[C@H]2C[C@@H]1c1cc(N3CCN(CCO)CC3)ccc12
(b) COCCN1CCN(c2ccc3c(c2)[C@@H]2C[C@H]3CCN2C(=O)OCc2ccccc2)CC1
(c) O=C(OCc1ccccc1)N1CC[C@@H]2C[C@H]1c1cc(N3CCCN(CCCF)CC3)ccc12
(d) O=C(OCc1ccccc1)N1CC[C@@H]2C[C@H]1c1cc(N3CCN(CCCF)CC3)ccc12
(e) COCCN1CCN(c2ccc3c(c2)[C@H]2C[C@@H]3CCN2C(=O)OCc2ccccc2)CC1
Problem: I would appreciate it if you could sort these 5 molecules by Ki, starting from the smallest number. Lab note: record answer as labels in requested order.
Result: d, c, b, e, a

----------
system: Sigma intracellular receptor 2 (Homo sapiens, UniProt Q5BJF2)
Sequence (Q5BJF2 whole entry): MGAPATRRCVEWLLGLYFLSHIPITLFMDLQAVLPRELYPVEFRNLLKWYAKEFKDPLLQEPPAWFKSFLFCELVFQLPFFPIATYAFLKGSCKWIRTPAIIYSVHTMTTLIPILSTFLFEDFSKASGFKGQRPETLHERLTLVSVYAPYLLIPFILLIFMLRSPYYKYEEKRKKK
procedure-summary: Binding affinity to sigma 2 receptor (unknown origin) assessed as inhibition constant
pKi: −log10 of the molar value.
value-kind: pKi

mol: CN1CC(C(=O)N2CCN(c3ccc4c(c3)[C@@H]3C[C@H]4CCN3C(=O)OCc3ccccc3)CC2)C1
pKi: 7.45
--
mol: COCCCN1CCN(c2ccc3c(c2)[C@@H]2C[C@H]3CCN2C(=O)OCc2ccccc2)CC1
pKi: 8.10
--
mol: CNCCC(=O)N1CCN(c2ccc3c(c2)[C@@H]2C[C@H]3CCN2C(=O)OCc2ccccc2)CC1
pKi: 6.96
--
mol: CN(C)CCN1CCN(c2ccc3c(c2)[C@@H]2C[C@H]3CCN2C(=O)OCc2ccccc2)CC1
pKi: 7.28

(A) CCN(CC)C(=O)CCN1CCN(c2ccc3c(c2)[C@@H]2C[C@H]3CCN2C(=O)OCc2ccccc2)CC1
(B) CNCCN1CCN(c2ccc3c(c2)[C@@H]2C[C@H]3CCN2C(=O)OCc2ccccc2)CC1
(C) O=C(CCc1ccccc1)N1CC[C@@H]2C[C@H]1c1cc(N3CCN(CCCF)CC3)ccc12
(D) CN(C)C1CCN(c2ccc3c(c2)[C@@H]2C[C@H]3CCN2C(=O)OCc2ccccc2)CC1
Problem: Order each entry by recorded pKi, climbing from the minimum. Return the labels ranked in the requested order, please.
Result: C, B, D, A

(I) O=C(OCc1ccccc1)N1CC[C@@H]2C[C@H]1c1cc(N3CCN(CCCF)CC3)ccc12
(II) O=C(/C=C/c1ccccc1)N1CC[C@@H]2C[C@H]1c1cc(N3CCN(CCCF)CC3)ccc12
(III) CN1CC(CN2CCN(c3ccc4c(c3)[C@@H]3C[C@H]4CCN3C(=O)OCc3ccccc3)CC2)C1
Problem: Would you mind ranking these compounds by ascending pKi? Would you mind listing the labels in the order requested?
Result: II, III, I
(II: 7.27, III: 7.61, I: 8.04)

----------
system: Sigma non-opioid intracellular receptor 1 (Homo sapiens, UniProt Q99720)
procedure-summary: Displacement of [3H](+)-pentazocine from sigma 1 receptor in HEK293 cells assessed as inhibition constant by radioligand competition binding assay
Assay type: cell-based
value-kind: Ki (nM)

The following compounds have reported results that may help.
mol: O=C(OCc1ccc(C(F)(F)F)cc1)N1CC[C@@H]2C[C@H]1c1cc(N3CCN(CCCF)CC3)ccc12
value-kind: Ki
number: 67.9
//
mol: O=C(CCc1ccccc1)N1CC[C@@H]2C[C@H]1c1cc(N3CCN(CCCF)CC3)ccc12
value-kind: Ki
number: 57.6
//
mol: O=C(OCc1ccccc1)N1CC[C@@H]2C[C@H]1c1cc(N3CC4CCC(C3)N4CCCF)ccc12
value-kind: Ki
number: 70.4
//
mol: O=C(OCc1cccc(F)c1)N1CC[C@@H]2C[C@H]1c1cc(N3CCN(CCCF)CC3)ccc12
value-kind: Ki
number: 17.2
//
mol: O=C(OCc1ccccc1)N1CC[C@@H]2C[C@H]1c1cc(N3CCN(CCO)CC3)ccc12
value-kind: Ki
number: 510
//
mol: CN(C)CCCOC1CN(c2ccc3c(c2)[C@@H]2C[C@H]3CCN2C(=O)OCc2ccccc2)C1
value-kind: Ki
number: 118
//
mol: CN1CC(CN2CCN(c3ccc4c(c3)[C@@H]3C[C@H]4CCN3C(=O)OCc3ccccc3)CC2)C1
value-kind: Ki
number: 94.1
//
mol: O=C(OCc1ccccc1)N1CC[C@H]2C[C@@H]1c1cc(N3CCN(C4CCC4)CC3)ccc12
value-kind: Ki
number: 50.7

(1) O=C(OCc1ccccc1)N1CC[C@H]2C[C@@H]1c1cc(N3CCN(CCO)CC3)ccc12
(2) O=C(OCc1ccccc1)N1CC[C@@H]2C[C@H]1c1cc(N3CCN(C4CCC4)CC3)ccc12
(3) COCCN1CCN(c2ccc3c(c2)[C@@H]2C[C@H]3CCN2C(=O)OCc2ccccc2)CC1
Problem: // ascending sort on recorded Ki Order the labels as requested and list them.
Result: 2, 3, 1

----------
system: Sigma intracellular receptor 2 (Homo sapiens, UniProt Q5BJF2)
procedure-summary: Displacement of [3H](+)-ditolylguanidine from human sigma 2 receptor transfected in human HEK293T cells assessed as inhibition constant in presence of (+)-pentazocine by radioligand competition binding assay
Assay type: cell-based, HEK293
value-kind: Ki (nM)

Worked examples follow.
mol: O=C(OCc1ccccc1)N1CC[C@H]2C[C@@H]1c1cc(N3CCN(CCCF)CC3)ccc12
value-kind: Ki
number: 24.3
//
mol: O=C(OCc1ccc(C(F)(F)F)cc1)N1CC[C@@H]2C[C@H]1c1cc(N3CCN(CCCF)CC3)ccc12
value-kind: Ki
number: 20.9
//
mol: O=C(OCc1ccc(Cl)cc1)N1CC[C@@H]2C[C@H]1c1cc(N3CCN(CCCF)CC3)ccc12
value-kind: Ki
number: 27.1
//
mol: CN(C)CCCOC1CN(c2ccc3c(c2)[C@@H]2C[C@H]3CCN2C(=O)OCc2ccccc2)C1
value-kind: Ki
number: 57.8

(I) O=C(OCc1ccccc1)N1CC[C@@H]2C[C@H]1c1cc(N3CCN(CCO)CC3)ccc12
(II) CCCCN1C[C@@H]2CN(c3ccc4c(c3)[C@@H]3C[C@H]4CCN3C(=O)OCc3ccccc3)C[C@@H]2C1
Problem: Of I and II , whose reported Ki is the larger number? Write the label of whichever entry you select.
Result: I

----------
system: Sigma non-opioid intracellular receptor 1 (Homo sapiens)
procedure-summary: Displacement of [3H](+)-pentazocine from sigma 1 receptor in HEK293 cells assessed as inhibition constant by radioligand competition binding assay
Type: cell-based
value-kind: Ki (nM)

In the examples that follow, each entry is paired with its recorded Ki.
mol: O=C(OCc1ccccc1)N1CC[C@H]2C[C@@H]1c1cc(N3CCN(CCCF)CC3)ccc12
number: 81.7

mol: O=C(OCc1ccccc1)N1CC[C@@H]2C[C@H]1c1cc(N3CCN(CCCF)CC3)ccc12
number: 37.7

mol: CCCCN1C[C@@H]2CN(c3ccc4c(c3)[C@@H]3C[C@H]4CCN3C(=O)OCc3ccccc3)C[C@@H]2C1
number: 50.2

mol: O=C(/C=C/c1ccccc1)N1CC[C@@H]2C[C@H]1c1cc(N3CCN(CCCF)CC3)ccc12
number: 185

mol: COCCN1CCN(c2ccc3c(c2)[C@H]2C[C@@H]3CCN2C(=O)OCc2ccccc2)CC1
number: 312

mol: O=C(OCc1ccccc1)N1CC[C@@H]2C[C@H]1c1cc(N3CCCN(CCCF)CC3)ccc12
number: 11.7

(1) O=C(OCc1ccc(Cl)cc1)N1CC[C@@H]2C[C@H]1c1cc(N3CCN(CCCF)CC3)ccc12
(2) CN(C)C1CCN(c2ccc3c(c2)[C@@H]2C[C@H]3CCN2C(=O)OCc2ccccc2)CC1
Problem: Of 1 and 2 , which shows the smaller Ki value? # respond with the chosen item's label
Result: 1
(1: 94.9 nM, 2: 140 nM)
